Reported Inhibition values for the following compounds.
- Tested on: Escherichia coli
- reported-conditions: Concentration 32 ug.mL-1;; ASSAY_TEST Inhibition of Bacterial Growth; detection method Absorption (OD600); MEDIA CAMHB; plate type 384well; NBS; CORNING #3640; time 18 hr
- Description: Antibacterial activity against Escherichia coli ATCC 25922 (CO-ADD:GN_001); MIC in CAMBH media using NBS plates, by OD(600)
Entries with a potency or affinity are not part of this list.
Output spec: scalar in %, unitless text.

[
  {
    "test-smiles": "CSc1cccc(NC(=O)Cn2c(=O)c3nnc(C)n3c3ccccc32)c1",
    "test-readout": "Inhibition",
    "units-symbol": "%",
    "observed": 2.47
  },
  {
    "test-smiles": "COc1cccc(NC(=O)Cn2nc3c(=O)n(-c4ccc(Br)cc4)ccn3c2=O)c1",
    "test-readout": "Inhibition",
    "units-symbol": "%",
    "observed": -3.42
  }
]

Ask | # value lookup — system Escherichia coli, readout Inhibition, item COc1ccc(NC(=O)Cn2nc3nc(Nc4ccc(F)cc4)ccn3c2=O)cc1F
Reply | -10.06

Ask | # value lookup — system Escherichia coli, readout Inhibition, item Cc1ccc(-c2cc3c4nn(CC(=O)Nc5cccc(Br)c5)c(=O)n4ccn3n2)cc1
Reply | 0.32

Ask | # value lookup — system Escherichia coli, readout Inhibition, item CCCCc1ccc(NC(=O)CSc2nc3ccccc3n3c(C(C)C)nnc23)cc1
Reply | -2.74

Ask | # value lookup — system Escherichia coli, readout Inhibition, item Cc1ccc(Sc2ccc3nn(CC(=O)Nc4ccc(F)c(Cl)c4)c(=O)n3n2)cc1
Reply | 0.26

Ask | # value lookup — system Escherichia coli, readout Inhibition, item CCc1cccc(NC(=O)Cn2nc3c(SCc4ccc(Cl)cc4)nccn3c2=O)c1
Reply | -12.19

Ask | # value lookup — system Escherichia coli, readout Inhibition, item CN(C)C(=O)CSc1nnc2c(=O)n(-c3ccc(F)cc3)ccn12
Reply | 0.14
